tested on: SF-539 CNS; experiment: NCI tumour cell line growth inhibition, 48 h
Outcome measure: log10 TGI (log10 of the value in µM)
The figures below represent log10 of TGI, where TGI is stated in µM.

Field request: log10 TGI | item: CCN(CC)CC(C)C(=O)/C=C/c1ccc(C)cc1 (configuration not stated) 0.59

Field request: log10 TGI | item: Cc1cc2nc(C=C(C(F)(F)F)C(F)(F)F)sc2cc1C 0.63

Field request: log10 TGI | item: N#Cc1ccc(-c2nc3c(N)nc(-c4ccccc4)nc3o2)cc1 1.35

Field request: log10 TGI | item: CC[C@@]1(O)C(=O)OCc2c1cc1n(c2=O)Cc2cc3ccccc3nc2-1 -1.23

Field request: log10 TGI | item: COC(=O)C1=C(C)N2CCSC2(C)C(C(=O)OC)C1c1cccc(Cl)c1 (configuration not stated) 1.40

Field request: log10 TGI | item: N#CC(C#N)=C/C=C/c1c(Cl)cccc1Cl 0.47

Field request: log10 TGI | item: COc1cccc(/C=C/C(=O)c2sc(C(N)=S)nc2C)c1O 1.99

# credit: PubChem BioAssay (NCI)
